tested on: SNB-19 CNS; experiment: NCI tumour cell line growth inhibition, 48 h; in the data active means GI50 below about 0.43 µM; inactive means the rest
Give one outcome, nothing more. List: active, inactive

COMPOUND	TARGET	DISCRETE_LABEL
COc1cc(-c2n/c(=C\c3c(O)[nH]c4ccc(Cl)cc34)cc3c2=Nc2ccccc2-3)ccc1F	SNB-19 CNS	inactive
Fc1cc2[nH]ncc2c2c3c(c(-c4cn[nH]c4C(F)(F)F)nc12)C1CCC3C1 (stereo not given)	SNB-19 CNS	inactive
CCOC(=O)/C=C/C1=C(c2cccs2)c2ccccc2CC1	SNB-19 CNS	inactive
Cc1ccc2nc(-c3ccc(N(C)C)c(Br)c3)cn2c1	SNB-19 CNS	inactive
Nc1ccccc1C#C/C=C\C#Cc1ccccc1[N+](=O)[O-]	SNB-19 CNS	inactive
COc1ccc(Cn2c3c(cc(OS(=O)(=O)C(F)(F)F)c2=O)Cc2ccccc2-3)cc1	SNB-19 CNS	inactive
COc1ccc(-c2ccc(-c3ccc(C(=N)N)cn3)o2)cc1	SNB-19 CNS	inactive
COc1ccc2cc(-c3c(-c4ccncc4)nc(-c4ccc(S(C)(=O)=O)cc4C)n3C)ccc2c1	SNB-19 CNS	inactive
Cc1cc2c(cc1C)N(C(=O)CCl)CCN2C(=O)CCl	SNB-19 CNS	inactive
CC[C@H](Nc1nc(C)nc(N)c1C#N)c1nc2cccc(NCc3ccc(C(=O)NO)cc3)c2c(=O)n1-c1ccccc1	SNB-19 CNS	inactive

Recorded test outcome, item OCCNc1ncnc2c1ncn2Cc1cccc(COc2cccc(OCc3cccc(Cn4cnc5c(NCCO)ncnc54)c3)c2)c1
inactive

Recorded test outcome, item CCCCCCCCCCCCCCCCCC1=NCCN1C(=O)OCCO
inactive

Recorded test outcome, item CCc1c(CNc2ccc(C(=O)NC(CC(=O)O)C(=O)O)cc2)ccc2nc(N)nc(N)c12 (stereo not given)
active

Recorded test outcome, item CCCOc1ccc2nc(NC(=O)OC)[nH]c2c1
active

Recorded test outcome, item COc1ccc2[nH]c(O)c(C(=Nc3ccc(N(C)C(=O)CN4CCN(C)CC4)cc3)c3ccccc3)c2c1
inactive

---

test system: MALME-3M melanoma; test: NCI tumour cell line growth inhibition, 48 h
MEASURE_NAME: TGI

# TGI of CCn1c2ccc(C(=O)CCCN3CCCCC3)cc2c2cc(C(=O)CCCN3CCCCC3)ccc21 = 18.5 µM

# TGI of CCC1=NC(CO)[C@H](c2ccccc2)O1 (some centres undefined) = > 100 µM

# TGI of CCCCC1=C(C(=O)N2CCOCC2)C2(OCCO2)C1=O = 57 µM

# TGI of Cc1cc(S(=O)(=O)NC#N)c(S/C(=N\Nc2ccc([N+](=O)[O-])cc2)c2ccc(Cl)cc2)cc1Cl = 96.3 µM

# TGI of COC(=O)[C@]12CCC(C)[C@H](C)[C@H]1C1=CCC3[C@@]4(C)CC[C@H](OC(C)=O)C(C)(C)C4CC[C@@]3(C)C1(C)C(O)C2 (some centres undefined) = > 100 µM

# TGI of COc1ccc2cc(-c3c(-c4ccncc4)nc(-c4ccc(S(C)(=O)=O)cc4C)n3C)ccc2c1 = > 25 µM

# TGI of Cc1cc2c(O)c(c1)CN(CC(=O)O)Cc1cc(C)cc(c1O)CN(CC(=O)O)Cc1cc(C)cc(c1O)CN(CC(=O)O)C2 = > 100 µM

# TGI of NCCCCNc1ccc2c(=O)[nH][nH]c(=O)c2c1 = > 100 µM

# TGI of O=C(c1ccncc1)n1nc(-c2ccccc2)c(N=Nc2ccccc2[N+](=O)[O-])c1-c1ccccc1 = > 100 µM

# TGI of CC[O-].CC[O-].O=S(=O)([O-])c1ccc([O-])c2ncccc12.O=S(=O)([O-])c1ccc([O-])c2ncccc12.[Ti+4] = > 100 µM

# TGI of NC(N)=NCCC1OC(=O)C2=C1c1c(O)ccc3nccc(c13)O2 (centres undefined) = > 100 µM

# TGI of COc1cc(-c2cn(-c3ccc(Cl)c(Cl)c3)c(=O)n2C(C)=O)cc(OC)c1OC = 33.3 µM

# TGI of CCOC(=O)c1cc(/C=C/C(C)=C/C(=O)OC)oc1C = > 100 µM

# TGI of O=[N+]([O-])c1cnn(C2=CNc3ccccc3N=C2)c1 = > 100 µM

---

system: HOP-92 NSCLC; assay: NCI tumour cell line growth inhibition, 48 h; in the data active = GI50 below about 0.43 µM; inactive = the rest
Give one outcome, nothing more. List: active, inactive

COMPOUND	DISCRETE_LABEL
COc1cc(-c2n/c(=C\c3c(O)[nH]c4ccc(Cl)cc34)cc3c2=Nc2ccccc2-3)ccc1F	inactive
C=C1C(=O)O[C@H]2[C@H]1CC/C(COC(=O)c1cc3cc(Cl)ccc3[nH]1)=C\CC[C@@]1(C)O[C@@H]21	inactive
COc1ccc2cc(-c3c(-c4ccncc4)nc(-c4ccc(S(C)(=O)=O)cc4C)n3C)ccc2c1	inactive
CCn1c2ccc(O)cc2c2c(C)c3c[n+](C)ccc3c(C)c21	inactive
COc1ccc(C2=NN(C=O)C(c3cccc(Nc4ccnc5cc(Cl)ccc45)c3)C2)cc1 (centres undefined)	inactive

Recorded test outcome, item CC[PH+](CC)CC.O=COC1OC([S-])C(OC=O)C(OC=O)C1OC=O.[Au+] (centres undefined)
inactive

Recorded test outcome, item CCOC(=O)/C=C/C1=C(c2cccs2)c2ccccc2CC1
inactive

Recorded test outcome, item NC(=O)c1cc2c3ccccc3ccn2c1-c1ccccc1
active

Recorded test outcome, item Fc1cc2[nH]ncc2c2c3c(c(-c4cn[nH]c4C(F)(F)F)nc12)C1CCC3C1 (centres undefined)
inactive

---

test system: NCI-H226 lung; assay: NCI tumour cell line growth inhibition, 48 h
Reported TGI values follow for various compounds
Unit µM implied. Number only.

COMPOUND	TARGET	UOM	TGI
COc1ccc2[nH]c(O)c(C(=Nc3ccc(N(C)C(=O)CN4CCN(C)CC4)cc3)c3ccccc3)c2c1	NCI-H226 lung	µM	15.6
CCCCOc1ccc(OCCCCCCCCCC[N+](C)(C)C)cc1	NCI-H226 lung	µM	15.2
COc1cc(-c2n/c(=C\c3c(O)[nH]c4ccc(Cl)cc34)cc3c2=Nc2ccccc2-3)ccc1F	NCI-H226 lung	µM	8.15
CC1CCC2(NC1)OC1CC3C4CC=C5CC(OC6OC(CO)C(OC7OC(C)C(O)C(O)C7O)C(O)C6OC6OC(C)C(O)C(O)C6O)CCC5(C)C4CCC3(C)C1C2C (centres undefined)	NCI-H226 lung	µM	7.97
Cc1cc(C)c(S(=O)(=O)N(CCCN)OCCCON(CCCN)S(=O)(=O)c2c(C)cc(C)cc2C)c(C)c1	NCI-H226 lung	µM	7.66

Here's the next entry for you.
# TGI of COc1cc(-c2cn(-c3ccc(Cl)c(Cl)c3)c(=O)n2C(C)=O)cc(OC)c1OC = 25.9

---

tested on: RPMI-8226 leukemia; assay: NCI tumour cell line growth inhibition, 48 h
MEASURE_NAME: TGI

COMPOUND	TGI
COc1cc(CC(C)NC(C)=O)cc(OC)c1 (stereo not given)	> 100 µM
COc1ccc2cc(-c3c(-c4ccncc4)nc(-c4ccc(S(C)(=O)=O)cc4C)n3C)ccc2c1	> 25 µM
CC(C)N1CC2CC(CN(C(=O)c3ccccc3)C2)C1	> 100 µM

With RPMI-8226 leukemia as the test system, COc1ccc2nc(/C(N)=C\C#N)ccc2c1 showed TGI of > 100 µM

With RPMI-8226 leukemia as the test system, Cc1cc2c(cc1Cl)SC1=NN(C)C(N(C)C)N1S2(=O)=O (stereo not given) showed TGI of > 100 µM

---

test system: U251 CNS
Give one outcome, nothing more. List: yes (active), no (inactive)

See these solved cases before continuing.
COMPOUND	TARGET	DISCRETE_LABEL
Nc1ccccc1C#C/C=C\C#Cc1ccccc1	U251 CNS	no
Cc1cc2c(cc1Cl)SC1=NN(C)C(N(C)C)N1S2(=O)=O (configuration not stated)	U251 CNS	no
C=C1C(=O)O[C@H]2[C@H]1CC/C(COC(=O)c1cc3cc(Cl)ccc3[nH]1)=C\CC[C@@]1(C)O[C@@H]21	U251 CNS	no
O=C1NC(=S)S/C1=C(/C=C(\CC(=O)c1ccccc1)c1ccc(Cl)cc1)c1ccccc1	U251 CNS	no
COc1cc(S(=O)(=O)Nc2ccc(C(=O)/C=C/c3ccc(O)cc3)cc2)ccc1F	U251 CNS	no

Recorded test outcome, item COc1cc2cc(C(=O)N3C[C@H](CCl)c4c3cc(N)c3ccccc43)[nH]c2c(OC)c1OC
yes

Recorded test outcome, item Cc1cc2c(cc1C)N(C(=O)CCl)CCN2C(=O)CCl
no

---

test system: EKVX NSCLC; assay: NCI tumour cell line growth inhibition, 48 h
Reported TGI values follow for various compounds

Solved cases (5 shown):
COMPOUND	TGI
COc1cc(S(=O)(=O)Nc2ccc(C(=O)/C=C/c3ccc(O)cc3)cc2)ccc1F	> 100 µM
C=C(C)OCOCCOC	> 100 µM
Cc1cc(S(=O)(=O)Nc2n[nH]c(-c3ccccn3)n2)c(S)cc1Cl	92 µM
N#CC1(O)CCCCCCCCCCC1	> 100 µM
CCC1=NC(CO)[C@H](c2ccccc2)O1 (stereo not given in full)	> 100 µM

# TGI of O=C1c2cc(Cl)ccc2-c2c1c1ccc([N+](=O)[O-])cc1c(=O)n2CCCBr = > 100 µM

# TGI of Cc1ccc(-c2cc(-c3ccco3)c(C#N)c(=O)n2C2OC(OC(=O)c3ccccc3)C(OC(=O)c3ccccc3)C2OC(=O)c2ccccc2)cc1 (stereo not given) = > 100 µM

# TGI of Cn1c(=O)c2c(nc3n(Cc4ccccc4)c(=O)c(NCCCBr)cn23)n(C)c1=O = > 100 µM

# TGI of COc1ccc2c(c1)/C(=C\c1c(Cl)[nH]c3ccc(OC)cc13)C(=O)N2 = > 100 µM

# TGI of CN(C)CC1CCC/C(=C\c2ccc(OC(=O)c3ccc(Cl)cc3)cc2)C1=O (stereo not given) = 6.16 µM
